# TEST SYSTEM: GPR40 receptor (Homo sapiens)
# ASSAY TEXT: GPR40 in vitro assay: calcium mobilization in transfected HEK293/hGPR40-32 cells (FDSS6000)
# RECORDED CONDITIONS: several values in one cell are separate determinations, read-out: ED50 (the source's name)
RECORDED METRIC: EC50 (µM)

C=C(C)CCOc1ccc(C(CC(=O)O)c2ccccc2)cc1 (centres unmarked) :: 2.71

[a] CCCCOc1ccc(C(CC(=O)O)c2cccc(C(F)(F)F)c2)cc1 (centres unmarked)
[b] CCCCOc1ccc(C(CC(=O)O)c2ccccc2O)cc1 (centres unmarked)
input: Please compare: a and b . Report which one has the smaller EC50 value. Use the label to indicate which entry you chose.
output: a

====

# TEST SYSTEM: GPR40 receptor (Homo sapiens, UniProt O14842)
# Sequence (O14842 whole entry): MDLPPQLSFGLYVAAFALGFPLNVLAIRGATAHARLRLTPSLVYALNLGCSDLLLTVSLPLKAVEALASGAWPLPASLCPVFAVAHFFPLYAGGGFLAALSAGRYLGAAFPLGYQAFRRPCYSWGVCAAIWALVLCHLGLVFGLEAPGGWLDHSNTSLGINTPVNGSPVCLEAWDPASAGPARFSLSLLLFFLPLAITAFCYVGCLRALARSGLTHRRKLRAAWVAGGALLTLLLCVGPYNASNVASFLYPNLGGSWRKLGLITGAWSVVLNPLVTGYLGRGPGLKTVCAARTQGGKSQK
# ASSAY TEXT: GPR40 in vitro assay: calcium mobilization in transfected HEK293/hGPR40-32 cells (FDSS6000)
# RECORDED CONDITIONS: several values in one cell are separate determinations, read-out: ED50 (the source's name)
RECORDED METRIC: EC50 (µM)

Sample answers from the record:
CCC(CC)COc1ccc(C(CC(=O)O)c2ccccc2)cc1 (single isomer, unassigned) [Compound 15] :: 0.85
O=C(O)CC(c1ccccc1)c1ccc(OCCCC(F)(F)F)cc1 (stereo not drawn) :: 3.16
CCCOc1ccc(C(CC(=O)O)c2ccccc2)cc1 (stereo not drawn) :: 3.7

[I] CCCCCCCOc1ccc(C(CC(=O)O)c2ccccc2)cc1 (stereo not drawn)
[II] CCC(CC)COc1ccc(C(CC(=O)O)c2ccccc2)cc1 (racemic) [Compound 11]
[III] CCCCOc1ccc(C(CC(=O)O)c2cccc(F)c2)cc1 (stereo not drawn)
input: Ascending by EC50, please: list the compounds accordingly. Rank the items, then write their labels in that order.
output: II, III, I

====

# TEST SYSTEM: GPR40 receptor (Homo sapiens)
# ASSAY TEXT: GPR40 in vitro assay: calcium mobilization in transfected HEK293/hGPR40-32 cells (FDSS6000)
# RECORDED CONDITIONS: several values in one cell are separate determinations, read-out: ED50 (the source's name)
pEC50: −log10 of the molar value.
RECORDED METRIC: pEC50

Sample answers from the record:
COCCCOc1ccc(C(CC(=O)O)c2ccccc2)cc1 (centres unmarked) [Compound 10] :: 5.12
CC1CCC(Oc2ccc(C(CC(=O)O)c3ccccc3)cc2)CC1 (centres unmarked) [Compound 13] :: 5.14

[P] CCCCCCOc1ccc(C(CC(=O)O)c2ccccc2)cc1 (centres unmarked) [Compound 4]
[Q] CC[C@@H](C)COc1ccc(C(CC(=O)O)c2ccccc2)cc1 (single isomer, unassigned) [Compound 16]
input: Please compare: P and Q . Report which one has the smaller pEC50 value. Use the label to indicate which entry you chose.
output: P
(P: 5.54, Q: 6.15)

[a] CC=CCOc1ccc(C(CC(=O)O)c2ccccc2)cc1 (centres unmarked) [Compound 9]
[b] CC[C@H](C)COc1ccc(C(CC(=O)O)c2ccccc2)cc1 (single isomer, unassigned) [Compound 17]
input: Please compare: a and b . Report which one has the smaller pEC50 value. Use the label to indicate which entry you chose.
output: a

====

compounds and their reported EC50
# TEST SYSTEM: GPR40 receptor (Homo sapiens, UniProt O14842)
# ASSAY TEXT: GPR40 in vitro assay: calcium mobilization in transfected HEK293/hGPR40-32 cells (FDSS6000)
# RECORDED CONDITIONS: several values in one cell are separate determinations, read-out: ED50 (the source's name)

Sample answers from the record:
CC(C)(C)CCOc1ccc(C(CC(=O)O)c2ccccc2)cc1 (stereo not drawn) :: > 10 µM
COCCOc1ccc(C(CC(=O)O)c2ccccc2)cc1 (stereo not drawn) :: > 10 µM

Now for a further compound.
input: Dear colleague, please send me the reported EC50 for CCC(CC)COc1ccc(C(CC(=O)O)c2ccccc2)cc1 (single isomer, unassigned) [Compound 14] when you can.
output: > 30 µM
